Let's look at some binders and their measured Kd.
# test-target: T1, huMICA*004 alpha 3-his (human)
# T1 construct: whole construct entry: GS, alpha 3 domain, GNS, His8; also called MICA004.His; MICA*004 alpha3 construct
# T1 chain: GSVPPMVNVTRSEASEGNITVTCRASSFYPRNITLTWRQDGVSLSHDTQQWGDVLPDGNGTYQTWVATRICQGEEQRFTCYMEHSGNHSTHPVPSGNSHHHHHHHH
# measurement-notes: SPR, Biacore 8K, antibody on Protein A chip
Write down the numeric answer in nM and omit the unit.

As a guide, the following entries are already answered.
{"columns": ["binder", "readout-number"],
 "data": [
  ["13A9v3 (antibody, IgG1, V domains shown, humanized variant of 13A9) VH: EVQLVQSGAEVKKPGASVKVSCKASGYAFTNYLIEWVRQAPGQGLEWIGAINPGSGATNYNEKFKDRVTITADTSTSTAYLELSSLRSEDTAVYYCARFLGNYFDNWGQGTLVTVSS VL: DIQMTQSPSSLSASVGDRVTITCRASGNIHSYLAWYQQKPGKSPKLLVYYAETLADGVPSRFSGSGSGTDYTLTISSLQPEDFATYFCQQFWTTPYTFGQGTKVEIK", 4.79],
  ["15F11v1 (antibody, IgG1, V domains shown, humanized variant of 15F11) VH: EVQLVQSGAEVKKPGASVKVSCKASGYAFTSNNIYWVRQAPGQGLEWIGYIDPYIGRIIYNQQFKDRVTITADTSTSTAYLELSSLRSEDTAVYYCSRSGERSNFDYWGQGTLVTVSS VL: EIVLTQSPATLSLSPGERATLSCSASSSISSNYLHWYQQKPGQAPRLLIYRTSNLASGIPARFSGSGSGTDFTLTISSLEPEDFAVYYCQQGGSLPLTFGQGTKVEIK", 5.96],
  ["1D5 (antibody, V domains shown, mouse variable domains; also called anti-MIC 1D5) VH: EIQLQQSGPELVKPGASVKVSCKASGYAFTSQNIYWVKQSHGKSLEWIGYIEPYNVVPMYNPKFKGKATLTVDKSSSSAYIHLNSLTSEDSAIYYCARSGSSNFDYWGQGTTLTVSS VL: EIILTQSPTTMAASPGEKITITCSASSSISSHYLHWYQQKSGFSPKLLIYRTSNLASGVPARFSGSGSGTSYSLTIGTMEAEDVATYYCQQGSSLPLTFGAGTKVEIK", 0.63],
  ["1D5v29 (antibody, IgG1, V domains shown, humanized variant of 1D5) VH: EIQLVQSGAEVKKPGASVKVSCKASGYAFTSQNIYWVRQAPGQGLEWIGYIEPYNVVPVYNPKFKGRATLTVDKSTSTAYLELSSLRSEDTAVYYCARSGSSNFDYWGQGTLVTVSS VL: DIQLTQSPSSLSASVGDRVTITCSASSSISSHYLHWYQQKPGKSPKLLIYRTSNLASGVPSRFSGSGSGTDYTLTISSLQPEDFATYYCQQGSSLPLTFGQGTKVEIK", 1.58]
]}

Consider the additional binder presented here.
Field request: Kd | item: 1D5v12 (antibody, IgG1, V domains shown, humanized variant of 1D5) VH: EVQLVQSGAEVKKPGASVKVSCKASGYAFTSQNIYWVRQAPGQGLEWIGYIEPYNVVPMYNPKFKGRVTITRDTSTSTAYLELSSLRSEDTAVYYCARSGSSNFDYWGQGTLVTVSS VL: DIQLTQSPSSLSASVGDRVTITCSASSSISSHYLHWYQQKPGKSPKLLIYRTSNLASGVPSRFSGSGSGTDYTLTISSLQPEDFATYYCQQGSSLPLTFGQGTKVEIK 3.91
